Target: NaV1.7 (Homo sapiens)
Sequence (Q15858 whole entry): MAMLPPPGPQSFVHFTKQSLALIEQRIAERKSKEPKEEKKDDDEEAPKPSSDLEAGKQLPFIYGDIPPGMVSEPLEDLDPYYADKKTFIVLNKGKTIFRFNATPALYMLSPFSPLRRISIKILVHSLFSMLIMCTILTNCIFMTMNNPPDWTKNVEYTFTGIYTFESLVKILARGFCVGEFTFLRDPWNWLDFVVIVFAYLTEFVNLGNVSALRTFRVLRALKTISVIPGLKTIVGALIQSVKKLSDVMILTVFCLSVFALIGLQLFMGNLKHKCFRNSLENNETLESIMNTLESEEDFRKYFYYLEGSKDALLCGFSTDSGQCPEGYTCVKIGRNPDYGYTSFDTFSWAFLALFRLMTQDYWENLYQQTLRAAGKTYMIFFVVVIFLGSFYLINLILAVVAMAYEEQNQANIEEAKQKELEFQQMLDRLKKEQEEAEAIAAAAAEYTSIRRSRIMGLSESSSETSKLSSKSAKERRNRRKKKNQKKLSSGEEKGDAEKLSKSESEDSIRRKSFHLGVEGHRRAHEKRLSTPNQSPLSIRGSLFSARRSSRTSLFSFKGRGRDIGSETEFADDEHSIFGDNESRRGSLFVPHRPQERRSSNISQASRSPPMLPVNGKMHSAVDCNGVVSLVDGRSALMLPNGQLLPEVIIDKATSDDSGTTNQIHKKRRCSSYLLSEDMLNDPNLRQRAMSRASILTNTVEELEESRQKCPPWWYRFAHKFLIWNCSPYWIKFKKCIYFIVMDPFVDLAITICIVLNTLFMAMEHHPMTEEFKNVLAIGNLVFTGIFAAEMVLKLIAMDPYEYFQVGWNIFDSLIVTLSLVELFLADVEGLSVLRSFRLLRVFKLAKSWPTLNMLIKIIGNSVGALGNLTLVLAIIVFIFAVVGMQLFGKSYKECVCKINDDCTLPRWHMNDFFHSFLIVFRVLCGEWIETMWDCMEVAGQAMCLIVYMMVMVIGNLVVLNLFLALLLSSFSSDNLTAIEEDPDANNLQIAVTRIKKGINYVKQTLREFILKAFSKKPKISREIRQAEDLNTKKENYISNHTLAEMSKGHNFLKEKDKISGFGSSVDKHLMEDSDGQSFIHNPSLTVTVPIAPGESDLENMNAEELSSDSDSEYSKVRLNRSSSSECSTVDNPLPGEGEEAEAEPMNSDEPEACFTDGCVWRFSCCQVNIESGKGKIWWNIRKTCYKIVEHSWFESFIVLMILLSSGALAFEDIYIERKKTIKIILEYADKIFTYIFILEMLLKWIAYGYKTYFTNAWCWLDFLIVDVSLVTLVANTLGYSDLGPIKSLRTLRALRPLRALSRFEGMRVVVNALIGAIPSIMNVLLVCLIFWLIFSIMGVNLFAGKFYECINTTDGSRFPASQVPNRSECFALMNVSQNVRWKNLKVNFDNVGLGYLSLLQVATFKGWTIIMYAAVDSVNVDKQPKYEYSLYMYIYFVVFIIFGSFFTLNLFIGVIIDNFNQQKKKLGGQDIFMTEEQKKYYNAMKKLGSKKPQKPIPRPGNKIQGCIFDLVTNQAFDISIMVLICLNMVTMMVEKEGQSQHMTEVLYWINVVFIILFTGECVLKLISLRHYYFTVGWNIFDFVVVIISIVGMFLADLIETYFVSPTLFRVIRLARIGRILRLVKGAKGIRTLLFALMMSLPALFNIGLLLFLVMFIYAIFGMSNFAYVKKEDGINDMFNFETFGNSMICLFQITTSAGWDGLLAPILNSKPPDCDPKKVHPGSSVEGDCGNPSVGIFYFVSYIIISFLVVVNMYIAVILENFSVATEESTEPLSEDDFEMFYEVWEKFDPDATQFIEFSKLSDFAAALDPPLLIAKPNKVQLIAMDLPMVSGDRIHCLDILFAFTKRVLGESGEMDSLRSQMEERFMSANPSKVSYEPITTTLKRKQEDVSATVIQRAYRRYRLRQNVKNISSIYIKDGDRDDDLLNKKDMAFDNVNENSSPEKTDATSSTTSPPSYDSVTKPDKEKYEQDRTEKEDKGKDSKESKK
Sequence (Q07699 19-218 partner): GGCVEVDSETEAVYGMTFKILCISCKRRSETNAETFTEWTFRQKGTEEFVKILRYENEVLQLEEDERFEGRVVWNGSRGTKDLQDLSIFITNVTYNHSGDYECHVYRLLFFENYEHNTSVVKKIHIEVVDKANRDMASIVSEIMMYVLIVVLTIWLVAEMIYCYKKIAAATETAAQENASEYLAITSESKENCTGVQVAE
Sequence (O60939 30-215 partner): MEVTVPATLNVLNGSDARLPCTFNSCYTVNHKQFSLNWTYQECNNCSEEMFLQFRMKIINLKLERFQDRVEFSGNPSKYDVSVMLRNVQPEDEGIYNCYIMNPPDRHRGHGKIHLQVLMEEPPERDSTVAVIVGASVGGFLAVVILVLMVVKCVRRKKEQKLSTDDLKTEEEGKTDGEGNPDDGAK
Experiment: Patchliner Electrophysiological In-Vitro Assay (NaV1.7)
Conditions: Patchliner patch clamp, HEK293, holding at V1/2
Experimental: In vitro assays were performed in recombinant cell line that stably express a heterotrimeric protein of interest from an introduced nucleic acid encoding the alpha subunit (hNav1.7, SCN9A), the beta subunit (SCNB1) and the beta subunit (SCNB2). The cell line was engineered using Human Embryonic Kidney 293 cells as host background. […]
pIC50: −log10 of the molar value.

Compound: CC(NC(=O)c1cc(-c2cc(Cl)ccc2Oc2cc(F)c(S(=O)(=O)Nc3ncns3)cc2Cl)ccn1)C(=O)O (racemic) [Compound 5]
pIC50: > 7.00
//
Compound: NC(=O)CNCCCc1cc(Cl)ccc1Oc1cc(F)c(S(=O)(=O)Nc2nccs2)cc1Cl [Compound 63]
pIC50: > 7.00
//
Compound: O=S(=O)(Nc1cscn1)c1cc(Cl)c(Oc2ccccc2-c2cnn3c2NCCC3)cc1F [Compound 58]
pIC50: 5.00 to 6.00
//
Compound: NC1(C(=O)O)CCN(CCCc2cc(Cl)ccc2Oc2cc(F)c(S(=O)(=O)Nc3cscn3)cc2Cl)CC1 [Compound 16]
pIC50: > 7.00
//
Compound: NC(=O)CNCCCc1ccccc1Oc1cc(F)c(S(=O)(=O)Nc2cscn2)cc1Cl [Compound 60]
pIC50: > 7.00
//
Compound: NC(CCNCCCc1cc(Cl)ccc1Oc1cc(F)c(S(=O)(=O)Nc2cscn2)cc1Cl)C(=O)O (stereo not drawn) [Compound 17]
pIC50: 6.00 to 7.00
//
Compound: O=C(O)CNCCCc1cc(Cl)ccc1Oc1cc(F)c(S(=O)(=O)Nc2nccs2)cc1F [Compound 18]
pIC50: 6.00 to 7.00
//
Compound: NC(=O)CNCCCc1cc(Cl)ccc1Oc1cc(F)c(S(=O)(=O)Nc2cscn2)cc1Cl [Compound 49]
pIC50: > 7.00
//
Compound: COC(=O)CNCCCc1cc(Cl)ccc1Oc1cc(F)c(S(=O)(=O)Nc2cscn2)cc1Cl [Compound 24]
pIC50: > 7.00
//
Compound: CCCN(CCCc1cc(Cl)ccc1Oc1cc(F)c(S(=O)(=O)Nc2nccs2)cc1Cl)CC(=O)O [Compound 65]
pIC50: > 7.00
//
Compound: CCOC(=O)N(CCCc1cc(Cl)ccc1Oc1cc(F)c(S(=O)(=O)Nc2nccs2)cc1Cl)CC(=O)O [Compound 34]
pIC50: 6.30 to 7.00
//
Compound: CC#CCN(CCCc1cc(Cl)ccc1Oc1cc(F)c(S(=O)(=O)Nc2nccs2)cc1Cl)CC(=O)O [Compound 64]
pIC50: > 7.00
//
Compound: O=C(O)CCNC(=O)c1cc(-c2cc(Cl)ccc2Oc2cc(F)c(S(=O)(=O)Nc3ncns3)cc2Cl)ccn1 [Compound 1]
pIC50: > 7.00
//
Compound: NC(=O)CCNCCCc1cc(Cl)ccc1Oc1cc(F)c(S(=O)(=O)Nc2cscn2)cc1Cl [Compound 26]
pIC50: > 7.00
//
Compound: O=S(=O)(Nc1cscn1)c1cc(Cl)c(Oc2ccc(Cl)cc2-c2cnn3c2NCCC3)cc1F [Compound 33]
pIC50: 6.00 to 7.00
